Would you mind telling me the reported inhibition at 10 µM of each entry?
molecular target: NPY2 receptors (Homo sapiens); construct: Cell Membranes from KAN-TS cells having NPY2 receptors; endogenous in cells; host or cells: KAN-TS cells (membranes); test: Neuropeptide Y receptor binding assay (125I-PYY, KAN-TS cell membranes); settings: 10 μM compound; read-out: NPY-2@10, % Inh
Sequence (P49146 whole entry): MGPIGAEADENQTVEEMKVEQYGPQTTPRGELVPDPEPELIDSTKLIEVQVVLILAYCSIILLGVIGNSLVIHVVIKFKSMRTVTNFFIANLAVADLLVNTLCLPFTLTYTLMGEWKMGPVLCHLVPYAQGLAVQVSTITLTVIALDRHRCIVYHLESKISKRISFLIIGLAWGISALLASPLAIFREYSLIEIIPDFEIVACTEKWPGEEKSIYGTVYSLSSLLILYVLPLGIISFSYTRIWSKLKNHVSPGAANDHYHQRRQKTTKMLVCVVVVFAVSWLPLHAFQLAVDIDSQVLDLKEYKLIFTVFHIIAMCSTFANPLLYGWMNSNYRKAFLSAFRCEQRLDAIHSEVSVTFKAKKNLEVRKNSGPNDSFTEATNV
Form entry: value (%) — number only.

(Q) Lab note: record inhibition at 10 µM of O=C(NC(c1ccccc1)c1ccccc1)N1CCC(n2c(=O)n(CCCN3CCOCC3)c3ccccc32)CC1 tested on NPY2 receptors (Homo sapiens).
(A) 0

(Q) Output reported inhibition at 10 µM of the compound O=c1n(CCCCN2CCCC2)c2ccccc2n1C1CCN(C(=S)NC(c2ccccc2)c2ccccc2)CC1 on NPY2 receptors (Homo sapiens).
(A) 96

(Q) // fetch inhibition at 10 µM; item: O=c1[nH]c2ccccc2n1C1CCN(C(=S)Nc2ccccc2)CC1 ; system: NPY2 receptors (Homo sapiens)
(A) 13

(Q) Look up and report measured inhibition at 10 µM (NPY2 receptors (Homo sapiens)) for the following compound: CCOC(=O)CCn1c(=O)n(C2CCN(C(=S)NC(c3ccccc3)c3ccccc3)CC2)c2ccccc21
(A) 35
